FYI, the data here is from patent US9695151B2.

target: CYP11B2 (Homo sapiens (Human)); assay: G-402 cellular enzyme assay, human CYP11B2 (aldosterone release); conditions: G-402 cells, 1 μM Deoxycorticosterone
Sequence (P19099 25-503): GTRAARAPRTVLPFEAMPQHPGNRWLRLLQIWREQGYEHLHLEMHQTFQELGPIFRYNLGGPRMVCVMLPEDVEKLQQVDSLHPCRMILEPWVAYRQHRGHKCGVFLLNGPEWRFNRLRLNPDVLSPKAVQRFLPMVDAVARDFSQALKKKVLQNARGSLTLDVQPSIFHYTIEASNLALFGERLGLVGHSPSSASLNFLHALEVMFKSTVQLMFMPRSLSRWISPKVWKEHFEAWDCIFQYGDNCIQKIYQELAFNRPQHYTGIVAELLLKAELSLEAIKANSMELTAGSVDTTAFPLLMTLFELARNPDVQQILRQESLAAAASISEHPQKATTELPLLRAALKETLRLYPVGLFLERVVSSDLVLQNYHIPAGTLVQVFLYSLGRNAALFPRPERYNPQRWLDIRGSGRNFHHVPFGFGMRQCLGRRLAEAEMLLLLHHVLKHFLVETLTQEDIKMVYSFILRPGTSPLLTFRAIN
READOUT KIND: EC50 (nM)

(A) CCC(=O)N1CC(Nc2cncc(N3C(=O)c4ccc(C#N)cc4C3(C)C)c2)C1
(B) CC(C)S(=O)(=O)N1CCC(N(C)c2cncc(N3C(=O)c4ccc(Cl)cc4C3(C)C)c2)C1 (single isomer, unassigned) [Example 15]
(C) CCS(=O)(=O)N1CC(N(C)c2cncc(N3C(=O)c4ccc(Cl)cc4C3(C)C)c2)C1
(D) CN(c1cncc(N2C(=O)c3ccc(Cl)cc3C2(C)C)c1)C1CCN(S(C)(=O)=O)CC1
In ascending order of recorded EC50, list the compounds from the set above. Put the labels in the order asked and list them.
C, B, D, A

(I) CCS(=O)(=O)N1CCCC(Nc2cncc(N3C(=O)c4ccc(Cl)cc4C3(C)C)c2)C1 (single isomer, unassigned) [Example 24]
(II) CC1(C)c2cc(Cl)ccc2C(=O)N1c1cncc(NC2CCCN(S(C)(=O)=O)C2)c1 (single isomer, unassigned) [Example 22]
Which of the two gives a bigger number for EC50: I or II ? Use the label to indicate which entry you chose.
I
(I: 352 nM, II: 149 nM)

(P) CC(=O)N1CCC(Nc2cncc(N3C(=O)c4ccc(Cl)cc4C3(C)C)c2)CC1
(Q) CCS(=O)(=O)N1CCC(N(C)c2cncc(N3C(=O)c4ccc(Cl)cc4C3(C)C)c2)CC1
(R) CC(C)S(=O)(=O)N1CCCC(Nc2cncc(N3C(=O)c4ccc(Cl)cc4C3(C)C)c2)C1 (single isomer, unassigned) [Example 26]
(S) CCC(=O)N1CC(Nc2cncc(N3Cc4cc(Cl)ccc4C3=O)c2)C1
Rank the items in ascending order with respect to EC50. Put the labels in the order asked and list them.
Q, P, S, R
(Q: 0.8 nM, P: 31 nM, S: 954 nM, R: 2360 nM)

* * *

molecular target: UniProt P15538; assay: G-402 cellular enzyme assay, human CYP11B1 (cortisol release); settings: G-402 cells, 1 μM Deoxycortisol
pEC50: −log10 of the molar value.
READOUT KIND: pEC50

Example results:
MOLECULE	SYSTEM TESTED	pEC50
CC(=O)N1CCC(Nc2cncc(N3C(=O)c4ccc(Cl)cc4C3(C)C)c2)CC1	UniProt P15538	5.61
CCS(=O)(=O)N1CC(Nc2cncc(N3C(=O)c4ccc(Cl)cc4[C@@H]3C)c2)C1 (single isomer, unassigned)	UniProt P15538	5.97

(P) CC(C)S(=O)(=O)N1CCC(N(C)c2cncc(N3C(=O)c4ccc(Cl)cc4C3(C)C)c2)C1 (single isomer, unassigned) [Example 15]
(Q) CC1(C)c2cc(Cl)ccc2C(=O)N1c1cncc(NC2CN(S(C)(=O)=O)C2)c1
(R) CCS(=O)(=O)N1CC(Nc2cncc(N3C(=O)c4ccc(Cl)cc4C3(C)C)c2)C1
Arrange these molecules by their pEC50, starting with the largest number. Put the labels in the order asked and list them.
P, R, Q
(P: 6.14, R: 5.78, Q: 5.55)

* * *

target: UniProt:P15538; experiment: G-402 cellular enzyme assay, human CYP11B1 (cortisol release); conditions: G-402 cells, 1 μM Deoxycortisol
pEC50: −log10 of the molar value.
READOUT KIND: pEC50

Example results:
COMPOUND	READOUT NUMBER
CCC(=O)N1CC(Nc2cncc(N3CCc4cc(Cl)ccc4C3=O)c2)C1	4.62
CC1(C)c2cc(Cl)ccc2C(=O)N1c1cncc(NC2CCCN(S(C)(=O)=O)C2)c1 (single isomer, unassigned) [Example 23]	4.74
CC(C)S(=O)(=O)N1CC(Nc2cncc(N3CCc4cc(Cl)ccc4C3=O)c2)C1	5.42
CC1(C)c2cc(Cl)ccc2C(=O)N1c1cncc(NC2CCCN(S(C)(=O)=O)C2)c1 (single isomer, unassigned) [Example 22]	4.56
CC(=O)N1CC(Nc2cncc(N3C(=O)c4ccc(Cl)cc4C3(C)C)c2)C1	5.23
CC(=O)N1CC(Nc2cncc(N3CCc4cc(Cl)ccc4C3=O)c2)C1	4.39

(1) CCS(=O)(=O)N1CC(Nc2cncc(N3CCc4cc(Cl)ccc4C3=O)c2)C1
(2) CC(C)S(=O)(=O)N1CC2(CC(Nc3cncc(N4C(=O)c5ccc(Cl)cc5C4(C)C)c3)C2)C1
Could you tell me which of 1 and 2 has the lower pEC50 reading? Use the label to indicate which entry you chose.
1

* * *

target: CYP11B2 (Homo sapiens (Human)); experiment: G-402 cellular enzyme assay, human CYP11B2 (aldosterone release); details: G-402 cells, 1 μM Deoxycorticosterone
READOUT KIND: EC50 (nM)

(P) CC(C)S(=O)(=O)N1CCCC(Nc2cncc(N3C(=O)c4ccc(Cl)cc4C3(C)C)c2)C1 (single isomer, unassigned) [Example 27]
(Q) CCCS(=O)(=O)N1CCC(N(C)c2cncc(N3C(=O)c4ccc(Cl)cc4C3(C)C)c2)C1 (single isomer, unassigned) [Example 18]
(R) CCS(=O)(=O)N1CC(Nc2cncc(N3C(=O)c4ccc(Cl)cc4[C@H]3C)c2)C1 (single isomer, unassigned) [Example 41]
(S) CCS(=O)(=O)N1CCC(Nc2cncc(N3C(=O)c4ccc(Cl)cc4C3(C)C)c2)CC1 [Example 6]
Descending by EC50 please, for everything listed above. Put the labels in the order asked and list them.
P, R, S, Q

* * *

target: human CYP11B1 (Homo sapiens (Human), UniProt P15538); assay: G-402 cellular enzyme assay, human CYP11B1 (cortisol release); details: G-402 cells, 1 μM Deoxycortisol
Sequence (P15538 25-503): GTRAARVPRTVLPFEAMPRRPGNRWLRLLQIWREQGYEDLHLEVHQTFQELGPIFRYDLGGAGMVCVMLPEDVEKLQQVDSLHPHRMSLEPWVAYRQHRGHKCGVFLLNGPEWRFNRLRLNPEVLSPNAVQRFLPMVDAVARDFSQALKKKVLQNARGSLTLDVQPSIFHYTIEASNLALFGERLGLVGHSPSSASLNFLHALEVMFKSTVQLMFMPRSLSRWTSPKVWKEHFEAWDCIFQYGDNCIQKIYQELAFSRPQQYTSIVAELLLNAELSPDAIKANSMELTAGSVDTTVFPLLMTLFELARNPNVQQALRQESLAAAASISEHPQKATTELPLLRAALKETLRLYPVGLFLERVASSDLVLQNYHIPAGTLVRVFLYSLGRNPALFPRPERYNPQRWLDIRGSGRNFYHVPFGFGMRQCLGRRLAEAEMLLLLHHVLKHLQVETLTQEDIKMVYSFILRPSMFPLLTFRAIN
READOUT KIND: EC50 (µM)

Example results:
MOLECULE	EC50, µM
CCCS(=O)(=O)N1CCC(N(C)c2cncc(N3C(=O)c4ccc(Cl)cc4C3(C)C)c2)C1 (single isomer, unassigned) [Example 17]	0.129
CCC(=O)N1CC(Nc2cncc(N3C(=O)c4ccc(Cl)cc4[C@H]3C)c2)C1 (single isomer, unassigned)	10.8
CCS(=O)(=O)N1CCCC(Nc2cncc(N3C(=O)c4ccc(Cl)cc4C3(C)C)c2)C1 (single isomer, unassigned) [Example 25]	13.9

(A) CC(=O)N1CC(N(C)c2cncc(N3C(=O)c4ccc(Cl)cc4C3(C)C)c2)C1
(B) CCS(=O)(=O)N1CC(Nc2cncc(N3C(=O)c4ccc(Cl)cc4[C@H]3C)c2)C1 (single isomer, unassigned)
(C) CCS(=O)(=O)N1CC(N(C)c2cncc(N3C(=O)c4ccc(Cl)cc4C3(C)C)c2)C1
Arrange these molecules by their EC50, starting with the largest number. Put the labels in the order asked and list them.
B, A, C
(B: 10.9 µM, A: 0.552 µM, C: 0.039 µM)
